Values compiled from paper PMC8364686.

test-protocol: Plasma pharmacokinetics of BI 187004 after single oral doses (LC–MS/MS)
experimental-context: male, human, plasma, po, 20 mg
endpoint-name: Cmax

Exam item: Report Cmax, nothing else, for this molecule: N#Cc1ccc2c(c1)[C@H]1CCCN(C(=O)c3ccc4[nH]cnc4c3)[C@H]1C2 [BI 187004]
Marked response: 1030 nM

###

test-protocol: Plasma pharmacokinetics of BI 187004 after single oral doses (LC–MS/MS)
experimental-context: male, human, plasma, po, 2.5 mg, Plasma concentration Mean, 2.5 mg single oral; 24 h
endpoint-name: concentration at 24 h (nM)
Give the number; nM is assumed, so skip it.

Exam item: Report concentration at 24 h, nothing else, for this compound: N#Cc1ccc2c(c1)[C@H]1CCCN(C(=O)c3ccc4[nH]cnc4c3)[C@H]1C2
Marked response: 4.66

###

test-protocol: Plasma pharmacokinetics of BI 187004 after single oral doses (LC–MS/MS)
experimental-context: male, human, plasma, po, 5 mg, Plasma concentration gMean, 5 mg single oral; 12 h
endpoint-name: concentration at 12 h (nM)
Give the number; nM is assumed, so skip it.

Exam item: Report concentration at 12 h, nothing else, for this molecule: N#Cc1ccc2c(c1)[C@H]1CCCN(C(=O)c3ccc4[nH]cnc4c3)[C@H]1C2 [BI 187004]
Marked response: 48.5

###

test-protocol: Plasma pharmacokinetics of BI 187004 after single oral doses (LC–MS/MS)
experimental-context: male, human, plasma, po, 40 mg, BI 187004 plasma concentrations, 40 mg single oral, planned time 48 h, Min
endpoint-name: concentration at 48 h (nM)
Give the number; nM is assumed, so skip it.

Exam item: Report concentration at 48 h, nothing else, for this compound: N#Cc1ccc2c(c1)[C@H]1CCCN(C(=O)c3ccc4[nH]cnc4c3)[C@H]1C2 [BI 187004]
Marked response: 30.8

###

test-protocol: Plasma pharmacokinetics of BI 187004 after single oral doses (LC–MS/MS)
experimental-context: male, human, plasma, oral
endpoint-name: Vd/F

Exam item: Report Vd/F, nothing else, for this compound: N#Cc1ccc2c(c1)[C@H]1CCCN(C(=O)c3ccc4[nH]cnc4c3)[C@H]1C2
Marked response: 87.9 to 281 L

###

test-protocol: Plasma pharmacokinetics of BI 187004 after single oral doses (LC–MS/MS)
experimental-context: male, human, plasma, po, 80 mg, BI 187004 plasma concentrations, 80 mg single oral, planned time 4 h, Min
endpoint-name: concentration at 4 h
Provide a numeric answer, followed by its unit.

Exam item: Report concentration at 4 h, nothing else, for this compound: N#Cc1ccc2c(c1)[C@H]1CCCN(C(=O)c3ccc4[nH]cnc4c3)[C@H]1C2 [BI 187004]
Marked response: 936 nM

###

test-protocol: Plasma pharmacokinetics of BI 187004 after single oral doses (LC–MS/MS)
experimental-context: male, human, plasma, po, 160 mg, BI 187004 plasma concentrations, 160 mg single oral, planned time 1.5 h, Max
endpoint-name: concentration at 1.5 h

Exam item: Report concentration at 1.5 h, nothing else, for this compound: N#Cc1ccc2c(c1)[C@H]1CCCN(C(=O)c3ccc4[nH]cnc4c3)[C@H]1C2 [BI 187004]
Marked response: 8.83 µM

###

test-protocol: Plasma pharmacokinetics of BI 187004 after single oral doses (LC–MS/MS)
experimental-context: male, human, plasma, po, 80 mg, BI 187004 plasma concentrations, 80 mg single oral, planned time 1 h, Mean
endpoint-name: concentration at 1 h (nM)
Give the number; nM is assumed, so skip it.

Exam item: Report concentration at 1 h, nothing else, for this compound: N#Cc1ccc2c(c1)[C@H]1CCCN(C(=O)c3ccc4[nH]cnc4c3)[C@H]1C2
Marked response: 2490
